assay: NCI Yeast Anticancer Drug Screen. Data for the mlh1 rad18 strain (AID 175); conditions: S. cerevisiae mlh1 rad18 strain growth inhibition; at 50.0 µM (retest, dose inferred, filed as 5.0); stronger effect = higher value
About 79,000 compounds went through this panel and 15% of them were active in at least one assay; those are over-represented in the sample as a whole.
MEASURED_PROPERTY: growth inhibition (%)
Unit % implied. Number only.

[[record]]
compound = "CCN(CC)CCSCCCNc1cc(OC)cc2cccnc12"
measured_property = "growth inhibition"
reading_unit = "%"
numeric_readout = 28


Return reported growth inhibition. Input compound: O=C(c1ccccc1)C(Cl)c1ccccc1 (configuration not stated)
99

Specify reported growth inhibition for the compound shown: CCCCCC(C)(O)C#CC(C)(O)CCCCC (configuration not stated)
99

Read the entry N#C/C(=C/c1cc(I)cc(I)c1O)C(N)=O and write its reported growth inhibition.
97
